Test system: Influenza B virus
Assay: Antiviral activity against influenza B virus infected in MDCK cells assessed as inhibition of neuraminidase activity by fluorimetric assay
Format: functional, organism-based
property_label: pIC50
By convention, pIC50 is the negative base-10 log of a molar concentration.

Dear colleague, I am looking for the recorded pIC50 of the following compound: CCC(CC)[C@H](NC(C)=O)[C@@H]1[C@H](O)[C@@H](C(=O)O)C[C@H]1NC(=N)N [PERAMIVIR ANHYDROUS]
8.52
